STUDY_TARGET: human GLP-1 receptor (human, UniProt P43220 24-463)
RUN_DESCRIPTION: cell-based or functional assay
Attribute: EC50 hGLP-1 R [pM]

BINDER	EC50 hGLP-1 R [pM]
XSQGTFTSDYSKQLESRRAQEFIEWLLATGPESGAPPPSX (Tza at 1; Cys(VS-DO3A(Ga)) at 40; C-terminal amide) [SEQ ID NO: 34]	18800 pM
XXQGTFTSDYSKQLDEQRAQEFIEWLLATGPESGAPPPSX (Tza at 1; D-Ser at 2; Cys(VS-DO3A(Ga)) at 40; C-terminal amide) [SEQ ID NO: 86]	115000 pM

Please examine the following record next.
Which EC50 hGLP-1 R [pM] value is on record for XSQGTFTSDTSKQLESRRAQEFIEWLLATGPESGAPPPSX (Tza at 1; Cys(VS-DO3A) at 40; C-terminal amide) [SEQ ID NO: 47] ?
1e+07 pM

Every entry's value here was drawn from patent US20200262885A1.
